biological target: Translocator protein (Rattus norvegicus, UniProt P16257); assay: Displacement of [3H]-PK 11195 from peripheral-type benzodiazepine receptor of rat ovary membranes; format: cell membranes, Female gonad, Membrane
Sequence (P16257 whole entry, looked up): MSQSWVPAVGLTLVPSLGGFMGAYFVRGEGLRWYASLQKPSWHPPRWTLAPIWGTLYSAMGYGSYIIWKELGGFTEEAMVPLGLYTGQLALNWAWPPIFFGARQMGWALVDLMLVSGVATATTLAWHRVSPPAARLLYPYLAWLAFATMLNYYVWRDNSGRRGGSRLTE
pIC50: −log10 of the molar value.

| Mol | pIC50 |
| --- | --- |
| CCCCN(CCCC)C(=O)Cc1c(-c2ccc(Cl)cc2)nc2ccccn12 | 7.98 |
| CCCN(CCC)C(=O)Cc1c(-c2ccccc2)nc2c(N)cccn12 | 8.24 |
| CCCN(CCC)C(=O)Cc1c(-c2ccccc2)nc2c(NC(C)=O)cccn12 | 6.35 |
| CCCN(CCC)C(=O)Cc1c(-c2ccccc2)nc2c(C)cc(Br)cn12 | 8.58 |
| CCCCCCN(CCCCCC)C(=O)Cc1c(-c2ccc(Cl)cc2)nc2ccccn12 | 6.75 |

// provenance: ChEMBL document CHEMBL1132659
